- Tested on: 292921-168-R-J2-PDC KRAS tumor spheroid viability;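 also: drug exposure lasted seven days after spheroids formed for three days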
- Assay Explanation: Anticancer human tumor 292921-168-R-J2-PDC patient-derived pancreatic carcinoma cell line growth inhibition [KRAS2]; active = viability on the fitted dose curve at most 10% of control; inactive = the rest
- Conditions: second compound 0.0316 µM; first compound 10 µM; spheroids with HUVEC and MSC
Assign a class; possible classes are active, inactive

# count of solved cases: 5
# Molecule, Class Name
measured = [
    ("CCNC(=O)CC1N=C(c2ccc(Cl)cc2)c2cc(OC)ccc2-n2c(C)nnc21 (stereo unspecified) + C=CC(=O)N1CCN(c2nc(OCC3CCCN3C)nc3c2CCN(c2cccc4cccc(C)c24)C3)CC1CC#N", "inactive"),
    ("COc1cc2nccc(Oc3ccc(NC(=O)C4(C(=O)Nc5ccc(F)cc5)CC4)cc3)c2cc1OC + C=CC(=O)N1CCN(c2nc(OCC3CCCN3C)nc3c2CCN(c2cccc4cccc(C)c24)C3)CC1CC#N", "inactive"),
    ("O=C(c1cc(Cc2n[nH]c(=O)c3ccccc23)ccc1F)N1CCN(C(=O)C2CC2)CC1 + C=CC(=O)N1CCN(c2nc(OCC3CCCN3C)nc3c2CCN(c2cccc4cccc(C)c24)C3)CC1CC#N", "inactive"),
    ("CC1(C)CCC(CN2CCN(c3ccc(C(=O)NS(=O)(=O)c4ccc(NCC5CCOCC5)c([N+](=O)[O-])c4)c(Oc4cnc5[nH]ccc5c4)c3)CC2)=C(c2ccc(Cl)cc2)C1 + C=CC(=O)N1CCN(c2nc(OCC3CCCN3C)nc3c2CCN(c2cccc4cccc(C)c24)C3)CC1CC#N", "active"),
    ("CC(C)NCC(C(=O)N1CCN(c2ncnc3c2C(C)CC3O)CC1)c1ccc(Cl)cc1 (stereo unspecified) + C=CC(=O)N1CCN(c2nc(OCC3CCCN3C)nc3c2CCN(c2cccc4cccc(C)c24)C3)CC1CC#N", "inactive"),
]

Okay, now this molecule:
In: So what was the verdict on Cn1nccc1Nc1nccc(-c2cc3c(s2)C(C)(C)N(CCN2CCOCC2)C3=O)n1 + C=CC(=O)N1CCN(c2nc(OCC3CCCN3C)nc3c2CCN(c2cccc4cccc(C)c24)C3)CC1CC#N in this test?
Out: inactive
